Test system: Escherichia coli
Assay: Antibacterial activity against Escherichia coli 1356 measured after 24 hrs by two-fold serial dilution method
Format: functional
Settings: Escherichia coli, 1356, 24 h
quantity: MIC

Any idea what MIC was measured for Cc1ccc(C(=O)/C=C/c2ccc(/C=N/NC(=O)c3ccccc3)cc2)c(C)c1 ?
> 64 µg/mL

How about this compound: N=C(N)N/N=C/c1ccc(/C=C/C(=O)c2cccc(Cl)c2)cc1
8 µg/mL

And then N=C(N)N/N=C/c1ccc(/C=C/C(=O)c2ccccc2Cl)cc1 , what is it?
16 µg/mL

How about O=C(N/N=C/c1ccc(/C=C/C(=O)c2ccccc2F)cc1)c1ccccc1 ?
> 64 µg/mL

What do you have for N=C(N)N/N=C/c1ccc(/C=C/C(=O)c2ccc(Br)cc2)cc1 ?
32 µg/mL

Then what about the compound COc1c(N2C[C@@H]3CCCN[C@@H]3C2)c(F)cc2c(=O)c(C(=O)O)cn(C3CC3)c12 ?
128 µg/mL

For N=C(N)N/N=C/c1ccc(/C=C/C(=O)c2ccccc2Br)cc1 then?
16 µg/mL

Another compound to check: O=C(N/N=C/c1ccc(/C=C/C(=O)c2ccccc2Br)cc1)c1ccccc1
> 64 µg/mL

What do you get for COc1c(N2CCNC(C)C2)c(F)cc2c(=O)c(C(=O)O)cn(C3CC3)c12 (stereo not given) ?
16 µg/mL

Try N=C(N)N/N=C/c1ccc(/C=C/C(=O)c2ccc(F)cc2)cc1 next.
8 µg/mL
